# Test name: Metabolic stability in mouse liver microsomes (in vitro t1/2)
# Assay type: in vitro ADME
# Condition info: mouse liver microsomes 0.5 mg/mL, 2 μM compound, % remaining at 60 min
# Experimental: Metabolic Stability Assays The following are assays that may be used to evaluate the metabolic stability of compounds of Formula (I) in human, rat, or mouse microsomes. The assays follow a common procedure recited below. 1. […] Peak areas were determined from extracted ion chromatograms. The slope value, k, was determined by linear regression of the natural logarithm of the remaining percentage of the parent drug vs. incubation time curve. […]
Quick reference: Mouse microsome % 60 min of the listed items.
Response body: numeric value in %, unit text excluded.

> print(dat)
                                item.smiles        parameter.measured  endpoint.unit  observed.measurement
1  Cn1ncc2ccc(-c3cc(COC(C)(C)C(=O)O)nn3Cc3ccccc3Cl)cc21  Mouse microsome % 60 min              %                    95
2  CC(C)COc1ncc(-c2cc(COC(C)(C)C(=O)O)nn2Cc2ccccc2Cl)s1  Mouse microsome % 60 min              %                    64

Problem: Specify reported Mouse microsome % 60 min for the compound shown: "CCOc1ccccc1Cn1nc(COC(C)(C)C(=O)O)cc1-c1cc(Cl)cc(OC)c1"
Result: 33

Problem: Output Mouse microsome % 60 min of "Cn1ncc2cccc(-n3nc(COC(C)(C)C(=O)O)cc3-c3cccc(OC4CCC4)c3)c21"
Result: 82
